Reference for the values: patent US5200412A

IC50 by entry:
target: PAF receptor (Homo sapiens, UniProt P25105); construct: Platelet concentrates were obtained from a hospital blood bank; assay: inhibition of 3H-PAF binding to human platelet plasma membrane; conditions: human platelet membranes, 0.5 nM 3H-PAF, 1 hour incubation at 0° C., pH 7.0
Sequence (P25105 whole entry): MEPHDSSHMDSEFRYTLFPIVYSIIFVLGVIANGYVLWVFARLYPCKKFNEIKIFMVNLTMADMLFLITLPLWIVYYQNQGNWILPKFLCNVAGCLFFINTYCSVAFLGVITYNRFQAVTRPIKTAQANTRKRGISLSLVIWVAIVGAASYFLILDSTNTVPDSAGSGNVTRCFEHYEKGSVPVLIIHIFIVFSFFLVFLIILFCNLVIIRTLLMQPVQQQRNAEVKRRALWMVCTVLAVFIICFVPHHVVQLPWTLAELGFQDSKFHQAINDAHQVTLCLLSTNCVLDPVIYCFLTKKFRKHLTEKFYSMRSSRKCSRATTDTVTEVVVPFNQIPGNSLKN
Field: numeric (nM). Do not append units.

CCOC(=O)[C@H](CC(C)C)N(C)S(=O)(=O)c1ccc(Cn2c(C)nc3cnccc32)cc1 [Example 53B]    0.15

Tell me measured IC50 for CCOC(=O)[C@H](CC(C)C)N(C)S(=O)(=O)c1ccc(Cn2c(C)nc3ccccc32)cc1 [Example 54] please.
3

Tell me measured IC50 for Cc1nc2cnccc2n1Cc1ccc(S(=O)(=O)N[C@@H](CC(C)C)C(=O)OCCOCc2ccccc2)cc1 [Example 43B] please.
1

Tell me measured IC50 for CCOCCOC(=O)[C@H](CC(C)C)NS(=O)(=O)c1ccc(Cn2c(C)nc3ccncc32)cc1 [Example 42A] please.
2

Tell me measured IC50 for CCOC(=O)[C@H](CC(C)C)NS(=O)(=O)c1ccc(Cn2c(C)nc3ccccc32)cc1 [Example 14] please.
15

Tell me measured IC50 for CCCCOC(=O)[C@H](CC(C)C)N(C)S(=O)(=O)c1ccc(Cn2c(C)nc3cnccc32)cc1 [Example 57B] please.
1

Tell me measured IC50 for COC(=O)[C@H](CC(C)C)NS(=O)(=O)c1ccc(Cn2c(C)nc3ccccc32)cc1 [Example 7] please.
20

Tell me measured IC50 for CCOC(=O)[C@H](CC(C)C)NS(=O)(=O)c1ccc(Cn2c(C)nc3cnccc32)cc1 [Example 35B] please.
0.2

Tell me measured IC50 for COC(=O)[C@H](CC(C)C)NS(=O)(=O)c1ccc(Cn2c(C)nc3cnccc32)cc1 [Example 32B] please.
8

Tell me measured IC50 for CC[C@H](C)[C@H](NS(=O)(=O)c1ccc(Cn2c(C)nc3ccccc32)cc1)C(=O)OC [Example 6] please.
30
